The reported numbers originate from patent US20250026850A1.

Field: Cell Binding (FOB). Provide a value for each of the binders that follow.
tested.on: T1, cynomolgus macaque (Macaca fascicularis) CD39 on cells (cynomolgus macaque (Macaca fascicularis), UniProt P49961 7-510 (human entry))
T1 construct: CHO cells engineered to express cyno CD39, or primary cyno B cells and monocytes; also called cyno CD39; cCD39
T1 chain: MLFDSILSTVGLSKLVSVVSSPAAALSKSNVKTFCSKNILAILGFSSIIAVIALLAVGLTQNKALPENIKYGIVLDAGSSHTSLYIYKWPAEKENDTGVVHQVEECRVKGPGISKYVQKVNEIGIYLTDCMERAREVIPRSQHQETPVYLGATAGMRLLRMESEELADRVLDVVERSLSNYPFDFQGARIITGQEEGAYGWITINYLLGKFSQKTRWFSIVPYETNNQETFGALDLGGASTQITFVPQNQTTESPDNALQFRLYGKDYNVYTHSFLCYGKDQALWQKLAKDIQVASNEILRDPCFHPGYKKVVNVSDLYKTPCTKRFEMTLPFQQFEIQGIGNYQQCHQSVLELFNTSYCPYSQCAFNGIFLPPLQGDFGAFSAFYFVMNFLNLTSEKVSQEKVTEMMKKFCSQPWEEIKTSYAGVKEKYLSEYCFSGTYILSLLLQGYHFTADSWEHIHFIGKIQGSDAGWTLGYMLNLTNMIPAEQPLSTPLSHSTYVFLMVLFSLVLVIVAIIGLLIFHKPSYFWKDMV
assay.procedure: flow cytometry, 100 nM IgG, cCD39-CHO cells; MFI ratio to parental CHO
One number for each entry, in FOB.

Examples with their reported Cell Binding (FOB) follow.
binder: 27589 (antibody, V domains shown) VH: QVQLVQSGAEVKKPGSSVKVSCKASGGTFSSYAISWVRQAPGQGLEWMGGIIPIFGTANYAQKFQGRVTITADESTSTAYMELSSLRSEDTAVYYCARDSGYHRHYSDYWGQGTLVTVSS VL: DIQMTQSPSTLSASVGDRVTITCRASQSISSWLAWYQQKPGKAPKLLIYKASSLESGVPSRFSGSGSGTEFTLTISSLQPDDFATYYCQQYGLFPITFGGGTKVEIKR
Cell Binding (FOB): 531

binder: 27587 (antibody, V domains shown) VH: QVQLVQSGAEVKKPGSSVKVSCKASGGTFSSYAISWVRQAPGQGLEWMGSIIPIFGTANYAQKFQGRVTITADESTSTAYMELSSLRSEDTAVYYCARESGGYRDHKLDVWGQGTMVTVSS VL: EIVLTQSPATLSLSPGERATLSCRASQSVSSYLAWYQQKPGQAPRLLIYDASKRATGIPARFSGSGSGTDFTLTISSLEPEDFAVYYCQQDVLWPLTFGGGTKVEIKR
Cell Binding (FOB): 1400

Consider the additional binder presented here.
Q: Complete the entry with Cell Binding (FOB) for 27579 (antibody, V domains shown) VH: QVQLVQSGAEVKEPGASVKVSCKAPGYTFTSYYMHWVRQAPGQGLEWMGVINPSGGSTSYAQKFQGRVTMTRDTSTSTVYMELSSLRSEDTAVYYCARGKREGGTEYLRHWGQGTLVTVSS VL: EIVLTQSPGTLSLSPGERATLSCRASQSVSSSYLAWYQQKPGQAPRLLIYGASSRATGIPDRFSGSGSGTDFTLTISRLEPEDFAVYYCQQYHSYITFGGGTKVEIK
A: 2670
